Origin of the recorded values: patent US9497970B2

System: Green Peach Aphid (Myzus persicae)
assay_overview: B.9 Green Peach Aphid (Myzus persicae), sprayed bell pepper plants
Format: in vivo
protocol_conditions: 120 h, infested bell pepper plants sprayed, after 5 days, in comparison with untreated controls
readout_type: mortality at 800 ppm

INPUT: Notebook entry, Green Peach Aphid (Myzus persicae) assay: mortality at 800 ppm of Cc1cccc(C)c1NC(=S)N/N=C/c1ccc2c(ccc3c2ncn3-c2ccc(C(F)(F)C(F)(F)F)cc2)c1 = ?
OUTPUT: ≥ 75%

INPUT: Tell me reported mortality at 800 ppm for O=[N+]([O-])c1ccccc1NC(=S)N/N=C/c1ccc2c(c1)CCc1c-2nnn1-c1ccc(OC(F)(F)F)cc1 , tested with Green Peach Aphid (Myzus persicae).
OUTPUT: ≥ 75%

INPUT: # get_value(readout= mortality at 800 ppm, system= Green Peach Aphid (Myzus persicae)) for Cc1cccc(C)c1NC(=S)N/N=C/c1ccc2c(ccc3c2ncn3-c2ccc(OC(F)(F)F)cc2)c1
OUTPUT: ≥ 75%

INPUT: What reported mortality at 800 ppm corresponds to CCc1cccc(C)c1NC(=S)N/N=C/c1ccc2c(ccc3c2ncn3-c2ccc(SC(F)(F)F)cc2)c1 on Green Peach Aphid (Myzus persicae)?
OUTPUT: ≥ 75%

INPUT: Request: mortality at 800 ppm, test system Green Peach Aphid (Myzus persicae), entry CCc1cccc(C)c1NC(=S)N/N=C/c1ccc2c(ccc3c(-c4ccc(OC(F)(F)F)cc4)n(C)nc32)c1
OUTPUT: ≥ 75%

INPUT: For Green Peach Aphid (Myzus persicae), provide mortality at 800 ppm of C/C(=N\NC(=S)Nc1c(C)cccc1C)c1ccc2c(ccc3c2ncn3-c2ccc(OC(F)(F)F)cc2)c1 please.
OUTPUT: ≥ 75%

* * *

Please provide measured mortality at 800 ppm for the entries that follow.
Tested on: Green Peach Aphid (Myzus persicae)
assay_overview: B.9 Green Peach Aphid (Myzus persicae), sprayed bell pepper plants
Assay type: in vivo
protocol_conditions: 120 h, infested bell pepper plants sprayed, after 5 days, in comparison with untreated controls

INPUT: Field request: mortality at 800 ppm | item: COc1ccc(C)cc1NC(=S)N/N=C/c1ccc2c(ccc3c2ncn3-c2ccc(OC(F)(F)F)cc2)c1 [C-25]
OUTPUT: ≥ 75%

INPUT: May I ask what mortality at 800 ppm has been recorded for Cc1cc(Br)cc(C)c1NC(=S)N/N=C/c1ccc2c(ccc3c2ncn3-c2ccc(OC(F)(F)F)cc2)c1 [C-4] ?
OUTPUT: ≥ 75%

INPUT: Find the recorded mortality at 800 ppm belonging to Cc1cccc(C)c1NC(=S)N/N=C/c1ccc2c(ccc3c(-c4ccc(OC(F)(F)F)cc4)onc32)c1 [C-84] and report it.
OUTPUT: ≥ 75%

INPUT: What mortality at 800 ppm value was documented for this compound, Cc1cccc(C)c1NC(=S)N/N=C/c1ccc2c(ccc3c2ncn3-c2ccc(C(F)(F)F)cc2F)c1 [C-113] ?
OUTPUT: ≥ 75%

INPUT: Recorded mortality at 800 ppm of CS/C(=N\N=C\c1ccc2c(ccc3c2ncn3-c2ccc(OC(F)(F)F)cc2)c1)Nc1ccccc1C(C)C [C-52] , please.
OUTPUT: ≥ 75%

INPUT: What measured mortality at 800 ppm goes with Cc1cccc(C)c1NC(=S)N/N=C/c1ccc2c(ccc3c2ncn3-c2ccc(SC(F)(F)F)cc2)c1 [C-75] ?
OUTPUT: ≥ 75%

INPUT: Request the reported mortality at 800 ppm associated with O=[N+]([O-])c1ccccc1NC(=S)N/N=C/c1ccc2c(ccc3c2ncn3-c2ccc(OC(F)(F)F)cc2)c1 [C-31]
OUTPUT: ≥ 75%

INPUT: Value lookup for mortality at 800 ppm; key = FC(F)(F)Oc1ccc(-n2nnc3c4ccc(/C=N/NC(=S)Nc5c(Cl)cccc5Cl)cc4ccc32)cc1 [C-57]
OUTPUT: ≥ 75%
